pKi: −log10 of the molar value.
Ok so here's the combined literature set: pKi for Aurora kinase A (Homo sapiens).

See these solved cases before continuing.
CCC(=O)Nc1ccc(Sc2nc(Nc3cc(C)n[nH]3)cc(N3CCC4(CCN(C)C4)CC3)n2)cc1 = ≥ 8.00
Cc1cnc(Nc2cc(N3CCC(N4CCN(C)CC4)CC3)nc(Sc3ccc(NC(=O)CC(F)(F)F)cc3)n2)s1 = ≥ 8.00
CNCCCN(C)C(=O)c1cccc(-c2cnc3c(-c4ccccn4)c(N)nn3c2)c1 = 5.30 to 6.30

Proceeding to the next molecule to report its pKi.
Lookup: Recorded pKi of Oc1cnc2[nH]cc(-c3oncc3-c3cccc(Cl)c3Cl)c2c1 , please.
Found: 6.00 to 6.70
